Hello, the source for this data is patent US10774071B2, in case you need it.

Below, each of the molecules is paired with its reported AC50 value.
- system-tested: PD-L1 (Homo sapiens (Human))
- procedure-text: PD-L1/PD-L1 dimerization biochemical protein-protein interaction assay (ALPHA)
- Format: binding
- experimental-context: 0.5 nM His tagged PD-L1 and 0.5 nM FLAG tagged PD-L1, Table 4B, read-out: AC50 PDL1 Dimer 1 nM
Number in nM, nothing else.

Solved entries:
INSERT INTO assay_data (compound, measurement_label, uom, obs_value) VALUES
  ('COc1nc(-c2cccc(-c3cccc4c3CC[C@@H]4Oc3nc(OC)c(CN4CC(C(=O)O)C4)nc3C)c2Cl)ccc1CNC[C@@H]1CCC(=O)N1', 'AC50', 'nM', 43.2),
  ('COc1nc(-c2cccc(-c3cccc4c3CC[C@@H]4Oc3nc(OC)c(CN4CC5(C(=O)O)CCC4CC5)cc3Cl)c2Cl)ccc1CN1CC[C@@H](O)C1', 'AC50', 'nM', 27.5);

API: the following record is the query input.
QUERY: Given the entry COc1nc(O[C@H]2CCc3c(-c4cccc(-c5cnc(CNC[C@@H]6CCC(=O)N6)cn5)c4Cl)cccc32)c(Cl)cc1CN1CC(C(=O)O)C1 , what AC50 was observed with PD-L1 (Homo sapiens (Human))?
RESULT: 48.7

---

- system-tested: PD-1/PD-L1 (Homo sapiens (Human))
- Sequence (Q9NZQ7 19-238): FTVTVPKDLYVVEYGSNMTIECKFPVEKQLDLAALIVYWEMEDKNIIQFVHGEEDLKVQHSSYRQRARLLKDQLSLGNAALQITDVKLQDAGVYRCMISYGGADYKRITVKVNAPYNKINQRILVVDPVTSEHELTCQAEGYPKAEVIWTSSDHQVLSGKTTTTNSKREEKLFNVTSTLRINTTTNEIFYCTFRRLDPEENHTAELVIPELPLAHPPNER
- procedure-text: PD-1/PD-L1 biochemical protein-protein interaction assay (ALPHA)
- Format: binding
- experimental-context: 0.3 nM His tagged PD-L1, 2.5 nM biotinylated Fc-PD-1, readings of 0.064 nM are equal to or less than 0.064 nM, read-out: IC50 PD-L1-PD1
pIC50: −log10 of the molar value.
measurement-label: pIC50

Some solved entries appear below for comparison.
INSERT INTO results (compound, obs_value) VALUES
  ('COc1nc(-c2cccc(-c3cccc4c3CC[C@@H]4Nc3nc(OC)c(CN4CC[C@@H](C(=O)O)C4)cc3C(F)(F)F)c2Cl)ccc1CNC[C@@H]1CCC(=O)N1', '≥ 10.19'),
  ('COc1nc(-c2cccc(-c3cccc4c3CC[C@@H]4Nc3nc(OC)c(CN4CC5CC(C(=O)O)C4C5)nc3C(F)(F)F)c2Cl)ccc1CNC[C@@H]1CCC(=O)N1 (stereo partly shown)', '≥ 10.19'),
  ('COc1nc(-c2cccc(-c3cccc4c3CC[C@@H]4Nc3nc(OC)c(CN[C@@H](C)C(N)=O)nc3C(F)(F)F)c2Cl)ccc1CNC[C@@H]1CCC(=O)N1', '≥ 10.19'),
  ('COc1nc(-c2cccc(-c3cccc4c3CC[C@@H]4Nc3nc(OC)c(CN[C@@H](C)C(=O)O)nc3C(F)(F)F)c2Cl)ccc1CNC[C@H]1C[C@](C)(O)C1', '≥ 10.19'),
  ('COc1nc(-c2cccc(-c3cccc4c3CC[C@@H]4Nc3nc(OC)c(CN4C[C@H](C)C[C@H]4C(=O)O)cc3C(F)(F)F)c2Cl)ccc1CNC[C@@H]1CCC(=O)N1', '≥ 10.19'),
  ('COc1cc(N[C@H]2CCc3c(-c4cccc(-c5ccc(CNC[C@@H]6CCC(=O)N6)c(OC)n5)c4Cl)cccc32)c(C(F)(F)F)nc1CN', '≥ 10.19'),
  ('COc1nc(-c2cccc(-c3cccc4c3CC[C@@H]4Nc3nc(OC)c(CN[C@@H](C)C(=O)O)nc3C(F)(F)F)c2Cl)ccc1CNC[C@@H]1CCC(=O)N1', '≥ 10.19'),
  ('COc1nc(-c2cccc(-c3cccc4c3CC[C@@H]4Nc3nc(OC)c(CN4CC[C@@H](C(=O)O)C4)cc3C(F)(F)F)c2Cl)ccc1CN1CC2(CCC(=O)N2)C1', '≥ 10.19');

QUERY: Given COc1nc(-c2cccc(-c3cccc4c3CC[C@@H]4Nc3nc(OC)c(CNCC(=O)O)nc3C(F)(F)F)c2Cl)ccc1CN[C@@H]1CCCC[C@@H]1O , state its recorded pIC50.
RESULT: ≥ 10.19

QUERY: Look up pIC50: COc1nc(-c2cccc(-c3cccc4c3CC[C@@H]4Nc3nc(OC)c(CNCC(=O)O)cc3C(F)(F)F)c2Cl)ccc1CN[C@H]1C[C@](C)(O)C1
RESULT: ≥ 10.19
